Exercise: state measured protein stability index for each of the variants provided.
B1: PTPLAD1 (parent)
chain: YINFRHLYKQRRRRYGQKKKKIH

variants of: B1; assay: protein stability index of a GFP-peptide fusion (GPS, HEK-293T) (PSI 1-6); higher = more stable; conditions: c terminus: native;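 further: lentivirally expressed fusions sorted by FACS into six bins by GFP to DsRed ratio, PSI derived from sequencing read proportions per bin multiplied by bin number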

See these solved cases before continuing.
Y15T; 1.69
N3I; 1.58
Q17C; 1.48
Q17E; 2.55

Give protein stability index for each of the items listed below.
1. Y8L
2. R5L

1. 1.76
2. 1.79

// data source = the supplement of paper PMC10567573
